The reported numbers originate from ChEMBL document CHEMBL4028868.

# System Name: Melanocortin receptor 3 (Homo sapiens, UniProt P41968)
# Sequence (P41968 whole entry, the tested form may be a part): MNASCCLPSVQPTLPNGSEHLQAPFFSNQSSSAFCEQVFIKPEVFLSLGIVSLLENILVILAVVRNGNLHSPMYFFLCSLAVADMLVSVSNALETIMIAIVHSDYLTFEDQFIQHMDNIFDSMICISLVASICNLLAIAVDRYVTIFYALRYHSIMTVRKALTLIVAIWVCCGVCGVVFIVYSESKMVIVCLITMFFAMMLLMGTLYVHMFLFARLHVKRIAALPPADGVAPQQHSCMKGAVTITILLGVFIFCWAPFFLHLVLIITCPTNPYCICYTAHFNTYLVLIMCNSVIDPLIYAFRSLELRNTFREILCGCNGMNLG
# Experimental Protocol: Agonist activity at EYFP-fused human MC3R expressed in HEK293 cells after 16 to 20 hrs by CRE-driven reporter assay relative to alpha-MSH
# Assay type: functional, cell-based
Outcome Measure: Emax (%)
Quick note: give the figure in %, leave out the unit.

Lookup: Give Emax for this entry on Melanocortin receptor 3 (Homo sapiens, UniProt P41968): "CSCC[C@H](NC(=O)[C@@H]1Cc2cn(nn2)C[C@H](NC(=O)[C@@H](N)CCCNC(=N)N)C(=O)N[C@@H](Cc2cnc[nH]2)C(=O)N[C@H](Cc2ccccc2)C(=O)N[C@@H](CCCNC(=N)N)C(=O)N[C@@H](Cc2c[nH]c3ccccc23)C(=O)N1)C(=O)O"
Found: 102

Lookup: Fill in: Emax on Melanocortin receptor 3 (Homo sapiens, UniProt P41968), entry "CSCC[C@H](NC(=O)[C@@H]1Cc2cn(nn2)C[C@H](NC(=O)[C@@H](N)CCCCN)C(=O)N[C@@H](Cc2cnc[nH]2)C(=O)N[C@H](Cc2ccccc2)C(=O)N[C@@H](CCCNC(=N)N)C(=O)N[C@@H](Cc2csc3ccccc23)C(=O)N1)C(=O)O"
Found: 96

Lookup: Specify Emax for "CSCC[C@H](NC(=O)[C@@H]1Cc2cn(nn2)C[C@H](NC(=O)[C@@H](N)CCCCN)C(=O)N[C@@H](C)C(=O)N[C@H](Cc2ccccc2)C(=O)N[C@@H](CCCNC(=N)N)C(=O)N[C@@H](Cc2c[nH]c3ccccc23)C(=O)N1)C(=O)O" , system Melanocortin receptor 3 (Homo sapiens, UniProt P41968).
Found: 104

Lookup: Send back Melanocortin receptor 3 (Homo sapiens, UniProt P41968) Emax of "CSCC[C@H](NC(=O)[C@@H]1Cc2cn(nn2)C[C@H](NC(=O)[C@@H](N)CCCCN)C(=O)N[C@@H](Cc2cnc[nH]2)C(=O)N[C@H](Cc2ccccc2)C(=O)N[C@@H](CCCNC(=N)N)C(=O)N[C@@H](Cc2c[nH]c3ccccc23)C(=O)N1)C(=O)O" only.
Found: 105

Lookup: Quote Emax with test system Melanocortin receptor 3 (Homo sapiens, UniProt P41968) for "C[C@H](NC(=O)[C@@H]1Cc2cn(nn2)C[C@H](NC(=O)[C@@H](N)CCCCN)C(=O)N[C@@H](Cc2cnc[nH]2)C(=O)N[C@H](Cc2ccccc2)C(=O)N[C@@H](CCCNC(=N)N)C(=O)N[C@@H](Cc2c[nH]c3ccccc23)C(=O)N1)C(=O)O"
Found: 107

Lookup: Please look at "CSCC[C@H](NC(=O)[C@@H]1Cc2cn(nn2)[C@@H](CCCNC(=N)N)C(=O)N[C@@H](Cc2cnc[nH]2)C(=O)N[C@H](Cc2ccccc2)C(=O)N[C@@H](CCCNC(=N)N)C(=O)N[C@@H](Cc2c[nH]c3ccccc23)C(=O)N1)C(=O)O" and tell me its recorded Emax on Melanocortin receptor 3 (Homo sapiens, UniProt P41968).
Found: 112

Lookup: Look up and report measured Emax (Melanocortin receptor 3 (Homo sapiens, UniProt P41968)) for the following molecule: "CSCC[C@H](NC(=O)[C@@H]1Cc2cn(nn2)C[C@H](NC(=O)[C@H](C)N)C(=O)N[C@@H](Cc2cnc[nH]2)C(=O)N[C@H](Cc2ccccc2)C(=O)N[C@@H](CCCNC(=N)N)C(=O)N[C@@H](Cc2c[nH]c3ccccc23)C(=O)N1)C(=O)O"
Found: 111
